Value source: ChEMBL document CHEMBL3763094

Observed log10 Ki for Melatonin receptor type 1A (Homo sapiens), reported per entry below.
Parameter Measured: log10 Ki (log10 of the value in nM)

{"Structure Smiles": "COc1ccc2oc(-c3cccc4ccccc34)c(CCNC(C)=O)c2n1", "Observed Measurement": 2.30}
{"Structure Smiles": "COc1cc2c(CCNC(C)=O)coc2cn1", "Observed Measurement": 1.86}
{"Structure Smiles": "COc1ccc2oc(I)c(CCNC(C)=O)c2n1", "Observed Measurement": -0.70}
{"Structure Smiles": "COc1cc2c(CCNC(C)=O)c[nH]c2cn1", "Observed Measurement": 0.98}
{"Structure Smiles": "COc1ccc2oc(-c3c4ccccc4cc4ccccc34)c(CCNC(C)=O)c2n1", "Observed Measurement": 1.49}

====

Tested On: Melatonin receptor type 1B (Homo sapiens)
Assay: Agonist activity at MT2 receptor (unknown origin) expressed in CHO cells incubated for 1 hr by [35S]GTPgammaS binding assay
Format: functional, cell-based
Calls of active or inactive are those of the source. The rule behind the calls is not given here.

{"Structure Smiles": "COc1ccc2oc(I)c(CCNC(C)=O)c2n1", "Activity": "Active"}
{"Structure Smiles": "COc1ccc2occ(CCNC(C)=O)c2n1", "Activity": "Active"}
{"Structure Smiles": "COc1ccc2oc(-c3ccc(F)cc3)c(CCNC(C)=O)c2n1", "Activity": "Active"}
{"Structure Smiles": "COc1ccc2oc(-c3ccccc3)c(CCNC(C)=O)c2n1", "Activity": "Active"}

====

Ratio Ki values for the compounds below.
Species: Homo sapiens
Assay: Selectivity ratio of Ki for human MT1 receptor to Ki for human MT2 receptor

{"Structure Smiles": "COc1ccc2oc(-c3c(C)cccc3C)c(CCNC(C)=O)c2n1", "Ratio Ki": 13.3}
{"Structure Smiles": "COc1ccc2oc(I)c(CCNC(C)=O)c2n1", "Ratio Ki": 2.5}
{"Structure Smiles": "COc1ccc2oc(-c3cccc4ccccc34)c(CCNC(C)=O)c2n1", "Ratio Ki": 152}
{"Structure Smiles": "CCC(=O)NCCCc1cc(OC)ccc1OCc1cccc(OC)c1", "Ratio Ki": 790}
{"Structure Smiles": "COc1ccc2oc(-c3ccc4ccccc4c3)c(CCNC(C)=O)c2n1", "Ratio Ki": 22.2}
{"Structure Smiles": "COc1ccc2oc(-c3ccccc3)c(CCNC(C)=O)c2n1", "Ratio Ki": 0.3}
{"Structure Smiles": "COc1ccc2oc(-c3c4ccccc4cc4ccccc34)c(CCNC(C)=O)c2n1", "Ratio Ki": 6.2}
{"Structure Smiles": "COc1ccc2oc(-c3cc4ccccc4c4ccccc34)c(CCNC(C)=O)c2n1", "Ratio Ki": 13.6}
{"Structure Smiles": "COc1cc2c(CCNC(C)=O)c[nH]c2cn1", "Ratio Ki": 0.3}
{"Structure Smiles": "COc1cc2c(CCNC(C)=O)coc2cn1", "Ratio Ki": 1.2}
{"Structure Smiles": "COc1ccc2occ(CCNC(C)=O)c2n1", "Ratio Ki": 1.5}
{"Structure Smiles": "COc1ccc2[nH]cc(CCNC(C)=O)c2n1", "Ratio Ki": 0.7}
{"Structure Smiles": "COc1ccc2oc(-c3ccc(F)cc3)c(CCNC(C)=O)c2n1", "Ratio Ki": 6.7}

====

Target sequence: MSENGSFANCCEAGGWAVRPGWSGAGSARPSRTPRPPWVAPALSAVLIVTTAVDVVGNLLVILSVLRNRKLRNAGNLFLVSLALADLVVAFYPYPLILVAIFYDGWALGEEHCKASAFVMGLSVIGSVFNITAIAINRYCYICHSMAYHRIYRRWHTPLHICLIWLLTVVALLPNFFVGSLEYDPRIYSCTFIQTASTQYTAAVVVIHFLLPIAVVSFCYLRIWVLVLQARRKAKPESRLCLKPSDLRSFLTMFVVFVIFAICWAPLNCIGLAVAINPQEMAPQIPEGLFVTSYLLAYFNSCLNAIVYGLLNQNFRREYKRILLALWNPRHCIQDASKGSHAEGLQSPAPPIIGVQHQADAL
Kindly apply the following: True if Ki is less than 1 nM, False in every other case.

{"Structure Smiles": "COc1ccc2oc(-c3cc4ccccc4c4ccccc34)c(CCNC(C)=O)c2n1", "Discrete Label": "False"}
{"Structure Smiles": "COc1ccc2oc(-c3ccccc3)c(CCNC(C)=O)c2n1", "Discrete Label": "True"}
{"Structure Smiles": "COc1ccc2oc(-c3ccc4ccccc4c3)c(CCNC(C)=O)c2n1", "Discrete Label": "True"}
{"Structure Smiles": "COc1ccc2oc(-c3cccc4ccccc34)c(CCNC(C)=O)c2n1", "Discrete Label": "False"}
{"Structure Smiles": "COc1ccc2oc(-c3c4ccccc4cc4ccccc34)c(CCNC(C)=O)c2n1", "Discrete Label": "False"}
{"Structure Smiles": "COc1ccc2occ(CCNC(C)=O)c2n1", "Discrete Label": "False"}
{"Structure Smiles": "COc1ccc2oc(-c3ccc(F)cc3)c(CCNC(C)=O)c2n1", "Discrete Label": "True"}
{"Structure Smiles": "COc1ccc2oc(-c3c(C)cccc3C)c(CCNC(C)=O)c2n1", "Discrete Label": "False"}

====

Tested On: Melatonin receptor type 1B (Homo sapiens)
Assay: Antagonist activity at MT2 receptor (unknown origin) expressed in CHO cells assessed as inhibition of melatonin-induced response for 30 mins by [35S]GTPgammaS binding assay
Type: functional, cell-based
Active and inactive are the calls of the source. No cut-off for these calls is given here.

{"Structure Smiles": "COc1ccc2oc(-c3ccc4ccccc4c3)c(CCNC(C)=O)c2n1", "Activity": "Active"}
{"Structure Smiles": "COc1ccc2oc(-c3cc4ccccc4c4ccccc34)c(CCNC(C)=O)c2n1", "Activity": "Active"}
{"Structure Smiles": "COc1ccc2oc(-c3cccc4ccccc34)c(CCNC(C)=O)c2n1", "Activity": "Active"}
{"Structure Smiles": "COc1ccc2oc(-c3c4ccccc4cc4ccccc34)c(CCNC(C)=O)c2n1", "Activity": "Active"}
